B1: PPEF2 (parent)
chain: DHSGFISLDEFRQTWKLFSSHMNI

# Variants of: B1
# PROTOCOL: protein stability index of a GFP-peptide fusion (GPS, HEK-293T) (PSI 1-6); higher = more stable;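 further: lentivirally expressed fusions sorted by FACS into six bins by GFP to DsRed ratio, PSI derived from sequencing read proportions per bin multiplied by bin number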
# EXPERIMENTAL_SETUP: c terminus: a fixed tail appended
Entry flag: Satisfied if protein stability index reaches 2; Not satisfied if it does not.

Q: Determine whether this variant has protein stability index no lower than 2: F5Y
Ans: Satisfied

Q: Has F11K a recorded protein stability index greater than or equal to 2?
Ans: Not satisfied

Q: Check if protein stability index >= 2 (inclusive). Item: D1E
Ans: Not satisfied

Q: Hi, just wondering whether L17G shows protein stability index of 2 or higher.
Ans: Not satisfied

Q: Determine whether this variant has protein stability index no lower than 2: N23G
Ans: Not satisfied

Q: Determine whether this variant has protein stability index no lower than 2: W15F
Ans: Satisfied

Q: Check the entry F11N : does protein stability index equal or exceed 2?
Ans: Not satisfied

Q: Dear colleague, could you confirm whether S20Y has protein stability index at or above 2?
Ans: Satisfied

Q: Form field: protein stability index at least 2? Entry: F11V
Ans: Satisfied

Q: Dear colleague, could you confirm whether D1M has protein stability index at or above 2?
Ans: Not satisfied

Q: Would you say H21Y shows protein stability index at minimum 2?
Ans: Not satisfied

Data provenance: the supplement of paper PMC10567573
